All figures here come from the supplement of paper PMC7877785.

Experiment: self-splicing fitness, log relative to wild type (ln ratio); higher = more splicing; Tetrahymena group I intron in knt gene, E. coli kanamycin selection, DiMSum; sequences stand for … in CUCUCU…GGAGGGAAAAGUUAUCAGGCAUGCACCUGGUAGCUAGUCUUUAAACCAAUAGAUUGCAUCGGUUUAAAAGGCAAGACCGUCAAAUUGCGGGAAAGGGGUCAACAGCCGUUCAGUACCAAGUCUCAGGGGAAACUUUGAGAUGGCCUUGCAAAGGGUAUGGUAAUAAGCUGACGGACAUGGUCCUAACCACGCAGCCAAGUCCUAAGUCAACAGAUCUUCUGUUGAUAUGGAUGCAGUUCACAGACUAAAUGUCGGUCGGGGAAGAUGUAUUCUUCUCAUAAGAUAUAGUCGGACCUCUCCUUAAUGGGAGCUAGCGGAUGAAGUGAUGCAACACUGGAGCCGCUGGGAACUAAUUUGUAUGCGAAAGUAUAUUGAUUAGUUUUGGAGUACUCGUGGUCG;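 note: selection with 25 µg/mL kanamycin versus none on LB agar overnight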
Details: 37 °C
Readout Name: self-splicing fitness (ln)

• CAGAAGCAAUAUUACGAAAU = -1.33
• AGCCAGCAAUAUUACGAUCC = -1.02
• GUGCAGCAAUAUUACGCUUU = -0.18
• GGCGAGCAAUAUUACGGUAU = -1.04
• CAAGAGCAAUAUUACGGCUC = -2.27
• GUCAAGCAAUAUUACGGAUC = -1.09
• UGGAAGCAAUAUUACGUCCG = -2.41
• CUGUAGCAAUAUUACGUCGA = -1.06
• GCCAAGCAAUAUUACGGCUU = -3.31
• CUUCAGCAAUAUUACGCAGC = -1.5
• GUAAAGCAAUAUUACGUCUG = 0.0989
• AAGUAGCAAUAUUACGAGCG = -1.11
• CAGGAGCAAUAUUACGUUGG = -0.863
• CCCAAGCAAUAUUACGCAGC = -3.49
• UGGUAGCAAUAUUACGCUCC = -2.44
• UAACAGCAAUAUUACGUCAU = -1.74
